assay: Clearance in Wistar rat at 1.40 mg/kg, iv; format: ADME, organism-based; conditions: in vivo, 1.4 mg/kg
PROPERTY LABEL: clearance (mL/min/kg)
Report as a plain number; the unit mL/min/kg is understood.

Query :: What value of clearance has been recorded for this entry: "CC(C)N1CCN(S(=O)(=O)c2ccc(NC(=O)c3ccc(C(F)(F)F)cc3[N+](=O)[O-])cc2)CC1"
Result :: 23.7

* * *

target: Transient receptor potential cation channel subfamily V member 4 (Homo sapiens); experiment: Antagonist activity at human TRPV4 expressed in HEK293 cells assessed as inhibition of 20% hypotonic solution-induced Ca2+ influx; assay type: cell-based
Sequence (Q9HBA0 whole entry): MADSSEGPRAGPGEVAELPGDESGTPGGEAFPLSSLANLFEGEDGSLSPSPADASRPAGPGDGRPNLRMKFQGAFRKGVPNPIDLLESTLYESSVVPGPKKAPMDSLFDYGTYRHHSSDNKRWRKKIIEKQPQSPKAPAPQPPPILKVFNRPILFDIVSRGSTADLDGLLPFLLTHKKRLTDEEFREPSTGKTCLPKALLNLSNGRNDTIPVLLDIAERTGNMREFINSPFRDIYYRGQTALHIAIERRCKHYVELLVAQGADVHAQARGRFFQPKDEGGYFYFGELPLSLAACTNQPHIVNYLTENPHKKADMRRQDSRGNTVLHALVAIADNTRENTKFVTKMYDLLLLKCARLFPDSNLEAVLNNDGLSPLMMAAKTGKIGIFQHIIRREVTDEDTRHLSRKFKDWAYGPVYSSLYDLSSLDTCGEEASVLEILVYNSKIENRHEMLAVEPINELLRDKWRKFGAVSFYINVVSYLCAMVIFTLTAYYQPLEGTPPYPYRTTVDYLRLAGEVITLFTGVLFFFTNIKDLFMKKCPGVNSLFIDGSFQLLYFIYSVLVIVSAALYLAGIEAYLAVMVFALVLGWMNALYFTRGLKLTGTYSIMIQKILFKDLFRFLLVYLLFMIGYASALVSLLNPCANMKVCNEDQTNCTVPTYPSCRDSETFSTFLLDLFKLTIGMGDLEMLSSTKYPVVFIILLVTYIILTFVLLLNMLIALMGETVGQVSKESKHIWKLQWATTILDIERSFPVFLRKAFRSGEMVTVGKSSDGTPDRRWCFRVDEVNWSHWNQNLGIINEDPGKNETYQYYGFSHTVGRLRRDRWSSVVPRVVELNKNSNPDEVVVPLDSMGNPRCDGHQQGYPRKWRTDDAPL
PROPERTY LABEL: pIC50
Give only the number. pIC50 is defined as minus log10 of concentration in molar units.

Query :: What value of pIC50 has been recorded for this entry: "CC(C)N1CCN(S(=O)(=O)c2ccc(NC(=O)c3ccc(C(F)(F)F)cc3[N+](=O)[O-])cc2)CC1"
Result :: 6.24

* * *

assay: Cmax in Wistar rat at 29.73 mg/kg, po; format: ADME, organism-based; design: dose 29.73 mg/kg, route oral; conditions: in vivo
PROPERTY LABEL: Cmax (ng/mL)
Report as a plain number; the unit ng/mL is understood.

Query :: What value of Cmax has been recorded for this entry: "CC(C)N1CCN(S(=O)(=O)c2ccc(NC(=O)c3ccc(C(F)(F)F)cc3[N+](=O)[O-])cc2)CC1"
Result :: 3820

* * *

target: Transient receptor potential cation channel subfamily V member 4 (Rattus norvegicus, UniProt Q9ERZ8); experiment: Antagonist activity at rat TRPV4 receptor expressed in HEK293 cells assessed as inhibition of EC80 of 4alpha-PDD-stimulated calcium flux after 10 mins; assay type: cell-based
Sequence (Q9ERZ8 whole entry): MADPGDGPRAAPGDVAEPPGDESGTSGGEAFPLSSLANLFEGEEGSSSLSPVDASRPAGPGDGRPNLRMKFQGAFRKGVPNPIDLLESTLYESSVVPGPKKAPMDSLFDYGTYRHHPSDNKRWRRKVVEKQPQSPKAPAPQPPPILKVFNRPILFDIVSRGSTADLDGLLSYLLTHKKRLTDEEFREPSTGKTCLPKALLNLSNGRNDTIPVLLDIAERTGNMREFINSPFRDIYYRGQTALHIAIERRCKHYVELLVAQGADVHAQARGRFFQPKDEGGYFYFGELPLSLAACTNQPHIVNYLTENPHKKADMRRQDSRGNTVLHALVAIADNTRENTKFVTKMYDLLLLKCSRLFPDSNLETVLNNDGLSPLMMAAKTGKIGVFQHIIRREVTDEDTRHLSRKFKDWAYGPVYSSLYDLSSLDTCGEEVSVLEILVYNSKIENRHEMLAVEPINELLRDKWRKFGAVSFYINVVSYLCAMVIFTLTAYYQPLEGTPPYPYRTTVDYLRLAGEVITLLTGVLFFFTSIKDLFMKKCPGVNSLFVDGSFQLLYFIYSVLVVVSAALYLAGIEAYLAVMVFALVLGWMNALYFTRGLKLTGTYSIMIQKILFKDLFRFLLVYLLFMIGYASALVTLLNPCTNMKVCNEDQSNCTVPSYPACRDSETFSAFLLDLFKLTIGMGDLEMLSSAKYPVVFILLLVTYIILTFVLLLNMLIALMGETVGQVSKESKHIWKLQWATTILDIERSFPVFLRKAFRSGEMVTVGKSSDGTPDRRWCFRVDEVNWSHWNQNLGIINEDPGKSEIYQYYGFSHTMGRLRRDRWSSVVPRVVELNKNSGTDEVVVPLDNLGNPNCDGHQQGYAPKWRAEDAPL
Give log10 of IC50 for every item shown.
Response schema: value (number) is log10 of IC50 in units of µM.

Query :: What value of log10 of IC50 has been recorded for this entry: "CC(C)N1CCN(S(=O)(=O)c2ccc(NC(=O)c3ccc(S(F)(F)(F)(F)F)cc3)cc2)CC1"
Result :: -0.41

Query :: Ok, now "CC(C)N1CCN(S(=O)(=O)c2ccc(NC(=O)c3ccc(-c4ccccn4)cc3)cc2)CC1"
Result :: 0.81

Query :: Ok, now "CC(C)N1CCN(S(=O)(=O)c2ccc(NC(=O)c3ccc(-c4ncccc4Cl)cc3)cc2)CC1"
Result :: 0.59

Query :: Ok, now "CN(C)S(=O)(=O)c1ccc(NC(=O)c2ccc(C(F)(F)F)cc2)cc1"
Result :: 0.76

Query :: Ok, now "CC(C)N1CCN(S(=O)(=O)c2ccc(NC(=O)c3ccc(C(F)(F)F)cc3[N+](=O)[O-])cc2)CC1"
Result :: -0.18

Query :: Ok, now "CC(C)N1CCN(S(=O)(=O)c2ccc(NC(=O)c3cccc(C(F)(F)F)c3)cc2)CC1"
Result :: 0.29

Query :: Ok, now "CC(C)N1CCN(S(=O)(=O)c2ccc(NC(=O)c3ccc(C(F)(F)F)cc3C(F)(F)F)cc2)CC1"
Result :: -0.31

Query :: Ok, now "CC(C)N1CCN(S(=O)(=O)c2ccc(NC(=O)c3ccc(C(F)(F)F)cc3F)cc2)CC1"
Result :: -0.43

Query :: Ok, now "CC(C)N1CCN(S(=O)(=O)c2ccc(NC(=O)c3ccc(C(F)(F)F)cc3N)cc2)CC1"
Result :: 0.47

Query :: Ok, now "CC(C)N1CCN(S(=O)(=O)c2ccc(NC(=O)c3ccc(C(C)(C)C)cc3)cc2)CC1"
Result :: 0.02

Query :: Ok, now "CC(C)N1CCN(S(=O)(=O)c2ccc(NC(=O)c3ccccc3)cc2)CC1"
Result :: 0.63

Query :: Ok, now "CC(C)N1CCN(S(=O)(=O)c2ccc(NC(=O)c3ccc(C(F)(F)F)cc3)cc2)CC1"
Result :: -0.03
